Numbers sourced from ChEMBL document CHEMBL6182936.

- PROCEDURE_SUMMARY: in vivo
- CONDITION_DETAILS: CD-1, mouse, ip, 40 mg/kg
MEASUREMENT_LABEL: Tmax at 24 h (h)
I only need the number, in h, no unit after it.

input: Could you share which Tmax at 24 h value was measured for "CC(=O)c1[nH]c2ccc(F)cc2c1-c1cn(CC2CCN(CCNS(=O)(=O)c3ccc(-c4c(O)cccc4F)cc3)CC2)nn1" ?
output: 1.33

====

- Test system: SK-BR-3
- PROCEDURE_SUMMARY: cells
- CONDITION_DETAILS: Homo sapiens
MEASUREMENT_LABEL: pIC50
pIC50 (log units): -log10 of the concentration in mol/L.

input: Could you share which pIC50 value was measured for "CC(C)COC(=O)c1[nH]c2ccc(F)cc2c1-c1cn(CC2CCN(CCNS(=O)(=O)c3ccc(CC(C)C)cc3)CC2)nn1" ?
output: 5.05
